- measured.on: human DGKα (Homo sapiens, UniProt P23743)
- Construct: TVMV protease cleavage site (C); Hexa-His (C); made in house; host or cells: Sf9 insect cells (baculovirus, Bac-to-Bac)
- Sequence (P23743 with tags, fused parts or gaps): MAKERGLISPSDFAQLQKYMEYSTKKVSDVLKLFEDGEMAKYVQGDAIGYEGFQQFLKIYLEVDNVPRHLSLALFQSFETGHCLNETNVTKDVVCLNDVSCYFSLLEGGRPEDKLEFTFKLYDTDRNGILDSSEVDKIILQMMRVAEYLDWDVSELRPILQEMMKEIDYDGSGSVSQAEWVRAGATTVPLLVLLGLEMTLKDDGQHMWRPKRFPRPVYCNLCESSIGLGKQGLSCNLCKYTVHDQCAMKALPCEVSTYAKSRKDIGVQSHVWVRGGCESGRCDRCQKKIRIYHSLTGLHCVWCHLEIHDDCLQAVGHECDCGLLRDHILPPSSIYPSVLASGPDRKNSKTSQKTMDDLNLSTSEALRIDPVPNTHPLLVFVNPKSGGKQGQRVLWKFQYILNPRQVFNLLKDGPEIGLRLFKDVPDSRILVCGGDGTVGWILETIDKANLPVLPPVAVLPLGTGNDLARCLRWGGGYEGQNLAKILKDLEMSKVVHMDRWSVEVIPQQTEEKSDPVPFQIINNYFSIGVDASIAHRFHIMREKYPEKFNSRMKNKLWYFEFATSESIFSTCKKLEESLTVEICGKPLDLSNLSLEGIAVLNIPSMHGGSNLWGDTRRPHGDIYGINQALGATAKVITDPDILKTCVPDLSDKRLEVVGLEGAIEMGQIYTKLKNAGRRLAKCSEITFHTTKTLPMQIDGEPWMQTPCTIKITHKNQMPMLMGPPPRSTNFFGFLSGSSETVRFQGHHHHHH
- procedure.text: DGKα LIPGLO assay (extruded liposome substrate), in vitro DGK inhibition
- Type: biochemical
- condition.context: liposome (LIPGLO) assay; read-out: DGKa LIPGLO IC50
pIC50: −log10 of the molar value.
Lab note: compare pIC50 against 6. Equal or greater, write 1 (yes). Smaller, write 0 (no).

// known answers, use as guide
molecule	label
COCC(c1ccc(F)cc1)N1C[C@H](C)N(c2cc(=O)n(C)c3ccc(C#N)nc23)C[C@H]1C (single isomer, unassigned) [Example 560]	1 (yes)
C[C@@H]1CN(C(c2ccc(F)cc2)c2ccc(C#N)cc2)[C@@H](CO)CN1c1cc(=O)n(C)c2ccc(C#N)nc12 (single isomer, unassigned) [Example 1176]	0 (no)
C[C@@H]1CN(c2cc(=O)n(C)c3ccc(C#N)nc23)[C@@H](C)CN1C(c1ccc(Cl)cc1)c1ccc(F)cn1 (single isomer, unassigned) [Example 192]	1 (yes)
Cc1ccc(C(c2ccc(C)c(Cl)c2)N2C[C@H](C)N(c3cc(=O)n(C)c4ccc(C#N)nc34)C[C@H]2C)nc1 (single isomer, unassigned) [Example 380]	0 (no)
CC[C@@H]1CN(c2cc(=O)n(C)c3ccc(C#N)nc23)[C@@H](C)CN1C(c1ccc(F)cc1)c1ccc(C(F)(F)F)cn1 (single isomer, unassigned) [Example 1106]	1 (yes)

Hi, just wondering whether Cc1cc(C(C)N2C[C@H](C)N(c3cc(=O)n(C)c4ccc(C#N)nc34)C[C@H]2C)no1 (single isomer, unassigned) [Example 649] shows pIC50 of 6 or higher.
0 (no)

---

- measured.on: human DGKα (Homo sapiens)
- Construct: TVMV protease cleavage site (C); Hexa-His (C); made in house; host or cells: Sf9 insect cells (baculovirus, Bac-to-Bac)
- procedure.text: DGKα LIPGLO assay (extruded liposome substrate), in vitro DGK inhibition
- Format: biochemical
- condition.context: DGKα liposome (LIPGLO) assay; read-out: DGKa LIPGLO IC50
Assignment: determine reported log10 IC50 for the given molecules.
Values are log10 of IC50 in µM.

molecule	recorded.result
C[C@@H]1CN(c2c(C#N)c(=O)n(C)c3ccc(C#N)nc23)[C@@H](C)CN1C(c1ccc(F)cc1)c1cn(C)cn1 (single isomer, unassigned) [Example 853]	1.28
C[C@@H]1CN(c2c(C#N)c(=O)n(C)c3ccc(C#N)nc23)[C@@H](C)CN1C(c1ccc(F)cc1)c1cscn1 (single isomer, unassigned) [Example 857]	0.00
C[C@@H]1CN(c2cc(=O)n(C)c3ccc(C#N)nc23)[C@@H](C)CN1C(c1ccc(F)cc1)c1nc(C2CC2)nn1C (single isomer, unassigned) [Example 769]	1.20

# per-item lookup of log10 IC50; items listed below
1. Cc1ccc(C(c2ccc(Cl)cc2)N2CCN(c3c(C#N)c(=O)n(C)c4ccc(C#N)nc34)C[C@H]2C)cc1 (mixture of isomers) [Example 907]
2. C[C@@H]1CN(c2cc(=O)n(C)c3ccc(C#N)nc23)[C@@H](C)CN1C(c1ccc(F)cc1)c1nc(N2CCOCC2)no1 (some centres unmarked) [Example 750]

[0.64, -0.32]
